- System: 786-0 renal
- Assay Method Text: NCI-60 one-dose screen, 48 h
- Particulars: 10 µM unless noted
The panel holds about 83,000 compounds, 20% with a hit somewhere; the sample as a whole holds those more often. Activity calls are given as the source filed them. Rule for the calls: active = growth percent below 10; inactive = the rest.
Response enum: active, inactive

Worked examples, 2 compounds total:
>>> print(df.to_string())
                          compound  target_entity     group
0  Nc1cc2c(cc1Cl)C(=O)c1ccccc1C2=O    786-0 renal    active
1         COc1ccc2c(c1)Nc1ccccc1S2    786-0 renal  inactive

## Task Answer briefly: the call reported for ClCC(Cl)C1CCC(Cl)C(Cl)C1 (stereo unspecified) in this assay.
## Result inactive

## Task Short answer needed: outcome of this test for CCOC(=O)c1ccc(NC(=O)Nc2nccs2)cc1 ?
## Result active

## Task Could you please tell me the result logged for FC(F)(F)c1cc(NC2=NCCN=C(Nc3cc(C(F)(F)F)cc(C(F)(F)F)c3)SS2)cc(C(F)(F)F)c1 in this assay?
## Result inactive

## Task Look up the recorded call for Oc1cc2ccccc2c(-c2c(O)c(O)cc3ccccc23)c1O in this test.
## Result inactive

## Task Please let me know the test result on file for CNc1ccccc1C(=O)N/N=C/C=C/c1ccccc1 .
## Result inactive

## Task Field: outcome | Entry: O=[N+]([O-])c1ccc2[nH]c(=S)n(/C=C(/c3ccc(Cl)cc3Cl)S(=O)(=O)Cc3ccc(Cl)cc3Cl)c2c1
## Result inactive
